Ref: paper PMC10204345

# measurement.protocol: Microsomal stability assay, mouse
# Assay type: in vitro ADME
# measurement.context: microsomes, pH 7.41
Some compounds, each annotated with its measured half-life at 0.75 h, 1 µM.
Supply the numeric figure in min, leaving out any unit text.

Recorded half-life at 0.75 h, 1 µM, per entry:
# compound, test.readout, measured.result
records = [
    ("CC(C)(C)[C@H](NC(=O)C(F)(F)F)C(=O)N1[C@@H]2CC[C@@H](C2)[C@H]1C(=O)N[C@@H](C[C@@H]1CCNC1=O)C(=O)c1nc2ccccc2s1 [11b]", "half-life at 0.75 h, 1 µM", 7.74),
    ("[2H]C([2H])([2H])C(=O)N[C@H](C(=O)N1[C@@H]2CC[C@@H](C2)[C@H]1C(=O)N[C@@H](C[C@@H]1CCNC1=O)C(=O)c1nc2ccccc2s1)C(C)(C)C [11d]", "half-life at 0.75 h, 1 µM", 33.8),
    ("CC(C)(C)[C@H](NC(=O)C(F)(F)F)C(=O)N1C[C@H]2[C@@H]([C@H]1C(=O)N[C@H](C#N)C[C@@H]1CCNC1=O)C2(C)C [nirmatrelvir, reference compound]", "half-life at 0.75 h, 1 µM", 17.7),
]

So what does the record say about half-life at 0.75 h, 1 µM for CN(C)S(=O)(=O)N[C@H](C(=O)N1[C@@H]2CC[C@@H](C2)[C@H]1C(=O)N[C@@H](C[C@@H]1CCNC1=O)C(=O)c1nc2ccccc2s1)C(C)(C)C [11f] ? 0.85

Record request: half-life at 0.75 h, 1 µM value, item CC(C)(F)C(=O)N[C@H](C(=O)N1[C@@H]2CC[C@@H](C2)[C@H]1C(=O)N[C@@H](C[C@@H]1CCNC1=O)C(=O)c1nc2ccccc2s1)C(C)(C)C [11c] 4.82
